tested on: VEEV TC83; assay: microbe, parasite or virus in culture; type: cell-based; details: Venezuelan equine encephalitis virus, Vero 76, 48 h, read-out: VEEV TC83 EC50 nM

>  <MOLECULE>
COc1ccc(-n2c([C@H]3CCCN3)nc3c([N+](=O)[O-])cccc3c2=O)cc1

>  <EC50>
> 1000 nM

$$$$
>  <MOLECULE>
COc1ccc(-n2c([C@H]3CCCN3)nc3cc([N+](=O)[O-])ccc3c2=O)cc1

>  <EC50>
> 1000 nM

$$$$
>  <MOLECULE>
COc1ccc(-n2c([C@H]3CCN(C)C3)nc3c(C)cc([N+](=O)[O-])cc3c2=O)cc1F

>  <EC50>
151 to 500 nM

$$$$
>  <MOLECULE>
CNCc1nc2ccc([N+](=O)[O-])cc2c(=O)n1-c1ccc(OC)cc1

>  <EC50>
> 1000 nM

$$$$
>  <MOLECULE>
N#Cc1ccccc1-n1c([C@H]2CCCN2)nc2ccc([N+](=O)[O-])cc2c1=O

>  <EC50>
> 1000 nM

$$$$
>  <MOLECULE>
CN[C@@H](C)c1nc2ccc([N+](=O)[O-])cc2c(=O)n1-c1ccc(OC)cc1

>  <EC50>
51 to 150 nM

$$$$
>  <MOLECULE>
COc1ccc(-n2c([C@H]3CCCN3)nc3c(-c4ccc(C)nc4)cc(C#N)cc3c2=O)cc1F

>  <EC50>
1 to 50 nM

$$$$
>  <MOLECULE>
COc1ccc(-n2c([C@@H]3C[C@@H](F)CN3)nc3c(C)cc([N+](=O)[O-])cc3c2=O)cc1F

>  <EC50>
> 1000 nM

$$$$
>  <MOLECULE>
COc1ccc(-n2c([C@H]3CCCN3)nc3ccc(C#N)c(F)c3c2=O)cc1

>  <EC50>
> 1000 nM

$$$$
>  <MOLECULE>
COc1ccc(-c2cc(C#N)cc3c(=O)n(-c4ccc(OC)c(F)c4)c(C4CCCN4)nc23)cc1F (stereo not drawn)

>  <EC50>
1 to 50 nM

$$$$
>  <MOLECULE>
COc1c(F)cc(-n2c(C3CCCN3)nc3c(-c4ccnc(C)c4)cc(C#N)cc3c2=O)cc1F (stereo not drawn)

>  <EC50>
1 to 50 nM

$$$$
>  <MOLECULE>
O=c1c2cc([N+](=O)[O-])ccc2nc([C@@H]2CCCN2)n1-c1ccccc1

>  <EC50>
151 to 500 nM

$$$$
>  <MOLECULE>
COc1ccc(-n2c(-c3cn(C)cn3)nc3c(-c4ccc(C)nc4)cc(C#N)cc3c2=O)cc1F

>  <EC50>
> 1000 nM

$$$$
>  <MOLECULE>
COc1ccc(-n2c([C@H]3C[C@H](O)CN3)nc3c(-c4ccc(C)nc4)cc(C#N)cc3c2=O)cc1F

>  <EC50>
1 to 50 nM

$$$$
>  <MOLECULE>
COc1ccc(-n2c([C@H]3CCCN3C)nc3ccc([N+](=O)[O-])cc3c2=O)cc1

>  <EC50>
1 to 50 nM

$$$$
